- assay_details: RAM signaling pathway blockade in yeast – S. cerevisiae, Pdr1DBD-CYC8 efflux-inhibited sensitized strain, primary screen (AID 1298);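 also: 0% = DMSO untreated cells without growth and 100% = 10 µM 1-NA-PP1 full growth; higher means more yeast growth rescued from 5-FOA killing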
- study_conditions: S. cerevisiae cbk1-as DSE1-URA3 strain, 5-FOA growth OD615, 2 d; at 50 µM; stronger effect = higher value
Binning of RAM network inhibition into classes: lower range = under 0.7%, middle range = from 0.7% up to 6%, upper range = 6% and over

# compound, label
data = [
    ("COc1ccc(C(=O)Nc2ccc(Cl)cc2C(=O)NCc2ccco2)cc1OC", "upper range"),
    ("Cc1c(C(=O)NCC2CCCO2)oc2ccc(S(=O)(=O)N3CCCCC3)cc12 (centres undefined)", "middle range"),
    ("Nc1ccccc1-c1nnc(SCc2ccccc2F)[nH]c1=O", "middle range"),
    ("COc1ccccc1C(=O)n1nc(-c2cccnc2)nc1N", "lower range"),
    ("CC(C)Cc1cc(C(=O)Nc2ccc(F)cc2F)no1", "lower range"),
    ("COc1ccc2ccccc2c1C1CC(=O)N2CN(Cc3ccco3)CSC2=C1C#N (centres undefined)", "middle range"),
]

---

Quick list: viability increase per entry.
- assay_details: viability gain of MRP-1-high H69AR cells under doxorubicin, pilot screen, MRP-1 activator project, CellTiter-Glo, duplicate (AID 807);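 also: compound pretreatment 18-22 h then 72 h combined with doxorubicin; 0% = doxorubicin alone and 100% = vehicle without doxorubicin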
- study_conditions: H69AR viability with doxorubicin, CellTiter-Glo luminescence; at 10 µM; stronger effect = higher value

# compound, unit_spec, viability increase
measured = [
    ("Cc1ccc2oc(=O)c3cc(C(=O)N4CCN(c5ncccn5)CC4)sc3c2c1", "%", -3.11),
    ("COc1cccc(-c2cc(C(=O)N3CCN(c4ncccn4)CC3)c3ccccc3n2)c1", "%", -6.25),
    ("Cc1cc(-c2ccco2)n(CC(=O)NCc2ccco2)n1", "%", -2.82),
    ("CC(=O)n1c2ccccc2c2c1c1ccccc1n2C", "%", -4.83),
    ("O=C(CCn1c(=O)oc2ccccc21)Nc1cccc(Cl)c1", "%", 0.42),
    ("CCCCn1cc(C(C)(C)C)c(C#N)c1NC(C)=O", "%", -1.24),
    ("COc1ccc(C2C(C(=O)N3CCCC3)c3cc(OC)c(OC)cc3C(=O)N2C)cc1OC (centres undefined)", "%", -1.65),
    ("CCc1cc2c(=O)n(N)c(CCC(=O)O)nc2s1", "%", -1.37),
    ("Nn1c(SCc2ccccc2)nnc1-c1ccco1", "%", -3.7),
]

---

- assay_details: growth suppression of PTEN-deleted HCT116, pilot screen, cell-based, HCT116 clonal line, CellTiter-Glo (AID 824);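 also: 0% = 20 µM Hyamine control and 100% = vehicle cell control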
- study_conditions: 60 h, at 10 µM, stronger effect = lower value
Records with an inconclusive call do not appear.
value_kind: viability (%)

# compound, obs_value
records = [
    ("COc1ccccc1CNC(=O)CCn1c(=O)oc2ccccc21", 96.2),
    ("O=C(NCc1ccco1)c1ccc(S(=O)(=O)c2cccc(S(=O)(=O)N3CCOCC3)c2)cc1", 87.1),
    ("COC(=O)C(C)Sc1nnc(Cc2cc(=O)[nH]c(=O)[nH]2)n1-c1ccc(OC)cc1 (configuration not stated)", 101),
    ("CC(CC1C(C#N)=C(N)OC2=C1C(=O)CCC2)c1ccccc1 (configuration not stated)", 99.3),
    ("Cc1cccc(NC(=O)CN2C(=O)COc3ccc(Cl)cc32)c1C", 85.8),
    ("CC(=O)N1CSCC1C(=O)N1CCN(c2ccc(N3CCOCC3)nn2)CC1 (configuration not stated)", 95.1),
    ("CC(C)CC(=O)Nc1ccc2oc(-c3cccnc3)nc2c1", 94),
]
